Experimental Readout: melting point

- Compound: "CSc1nc2cc(C)nn2c(Nc2cccc(C)c2)c1C#N [compound 191]"
  melting point: "174 to 176 °C"
- Compound: "CSc1nc2c(Br)cnn2c(NCc2ccccc2)c1C#N [compound 55]"
  melting point: "184 °C"
- Compound: "CSc1nc2nccn2c(NCc2ccncc2)c1C#N [compound 43]"
  melting point: "204 °C"
- Compound: "CSc1nc2ccnn2c(NOCCC2OCCCO2)c1C#N [compound 217]"
  melting point: "193 to 195 °C"
- Compound: "CSc1nc2ccnn2c(NOCC2OCCO2)c1C#N [compound 208]"
  melting point: "152 to 153 °C"
- Compound: "COCSc1nc2ccnn2c(N)c1C#N [compound 106]"
  melting point: "214 to 216 °C (dec.)"

Provide melting point values for the following items, in order.
1. CSc1nc2ccnn2c(NC(C)=O)c1C#N [Compound No. 7]
2. C=CCSc1nc2ccnn2c(NCc2ccccc2)c1C#N [compound 77]
3. CCC(CC)Sc1nc2ccnn2c(NCc2ccncc2)c1C#N [compound 115]
4. CSc1nc2ccnn2c(NO)c1C#N [compound 205]

stdout:
["> 280 °C", "90 to 91.5 °C", "129 to 133.4 °C", "214 to 218 °C"]
